assay: Pharmacokinetics of inhaled quaternary ammonium salts, plasma levels; format: in vivo, Balb/c mice; conditions: Balb/c, mouse, plasma, inhaled; inhalation of 1.44 mg/ml, 10 min; read-out: Plasma concentration ± std dev
OBSERVATION TYPE: concentration at 10 min (ng/mL)

entry_smiles=Cc1ccc(O)c([C@H](CC[N+](C)(C(C)C)C(C)C)c2ccccc2)c1.[I-] observation_type="concentration at 10 min" observed=1.4

----------
Target: muscarinic receptor M5 (Homo sapiens, UniProt P08912)
Construct: expressed in transfected cells
Sequence (P08912 whole entry): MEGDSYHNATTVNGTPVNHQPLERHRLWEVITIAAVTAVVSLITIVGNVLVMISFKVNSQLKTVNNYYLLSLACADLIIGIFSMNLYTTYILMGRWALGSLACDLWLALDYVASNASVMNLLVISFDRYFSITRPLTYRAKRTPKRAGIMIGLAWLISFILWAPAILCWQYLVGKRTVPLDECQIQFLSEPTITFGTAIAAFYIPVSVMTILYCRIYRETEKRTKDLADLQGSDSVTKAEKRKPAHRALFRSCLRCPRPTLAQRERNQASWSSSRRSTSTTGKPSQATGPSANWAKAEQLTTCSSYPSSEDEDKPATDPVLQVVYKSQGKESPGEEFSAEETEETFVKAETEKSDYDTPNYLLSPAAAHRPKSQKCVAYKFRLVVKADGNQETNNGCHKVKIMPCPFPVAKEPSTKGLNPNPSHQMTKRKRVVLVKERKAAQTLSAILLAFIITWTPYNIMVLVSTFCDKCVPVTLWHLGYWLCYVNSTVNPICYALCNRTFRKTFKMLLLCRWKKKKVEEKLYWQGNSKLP
Experiment: Muscarinic receptor subtype M5 binding assay, radioligand displacement
Conditions: [3]H-methylscopolamine displacement, membranes from recombinant mammalian cell lines; read-out: Ki values, receptor subtype M5
Description: Muscarinic receptor subtype M1-M5 binding assays were carried out. Briefly, [3]H-methylscopolamine was allowed to bind to membranes from various recombinant mammalian cell lines, each with an over-expression of a particular receptor subtype. Muscarinic receptor subtype M1-M5 binding assays were performed.
pKi: −log10 of the molar value.
Listed compounds paired with reported pKi
OBSERVATION TYPE: pKi

compound="Cc1ccc(O)c(C(CC[N+]2(C)CCCCC2)c2ccccc2)c1.[I-] (centres unmarked)" target_entity="muscarinic receptor M5 (Homo sapiens, UniProt P08912)" observed=9.05
compound="Cc1ccc(O)c(C(CC[N+]2(C)CCCCCC2)c2ccccc2)c1.[I-] (centres unmarked)" target_entity="muscarinic receptor M5 (Homo sapiens, UniProt P08912)" observed=8.74
compound="CC[N+]1(CCC(c2ccccc2)c2cc(C)ccc2O)CCCC1.[I-] (centres unmarked)" target_entity="muscarinic receptor M5 (Homo sapiens, UniProt P08912)" observed=8.92
compound="CC(C)N(CC[C@H](c1ccccc1)c1cc(CO)ccc1O)C(C)C [Hydroxytolterodine, reference compound]" target_entity="muscarinic receptor M5 (Homo sapiens, UniProt P08912)" observed=9.32
compound="Cc1ccc(O)c(C(CC[N+]2(C)CCCC2)c2ccccc2)c1.[I-] (centres unmarked)" target_entity="muscarinic receptor M5 (Homo sapiens, UniProt P08912)" observed=8.80
compound=CC(C)[N+](C)(CC[C@H](c1ccccc1)c1cc(CO)ccc1O)C(C)C.[I-] target_entity="muscarinic receptor M5 (Homo sapiens, UniProt P08912)" observed=9.17
compound="Cc1ccc(O)c([C@H](CCN(C(C)C)C(C)C)c2ccccc2)c1 [Tolterodine, reference compound]" target_entity="muscarinic receptor M5 (Homo sapiens, UniProt P08912)" observed=9.26
compound=Cc1ccc(O)c([C@H](CC[N+](C)(C(C)C)C(C)C)c2ccccc2)c1.[Br-] target_entity="muscarinic receptor M5 (Homo sapiens, UniProt P08912)" observed=9.59
